B1: HNF4A (parent)
chain: RFSRQCVVDKDKRNQCRYCRLKKC

variants of: B1; test: protein stability index of a GFP-peptide fusion (GPS, HEK-293T) (PSI 1-6); higher = more stable; conditions: c terminus: a fixed tail appended;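 also: lentivirally expressed fusions sorted by FACS into six bins by GFP to DsRed ratio, PSI derived from sequencing read proportions per bin multiplied by bin number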
Quick reference for protein stability index among some variants
Reply with the value as a number alone.

Below, 2 variants whose answers are already recorded.
K12M: 1.97
K10S: 2.02

Now consider the entry below.
Query (variant): K23W ; field requested: protein stability index
2.05

Origin of the recorded values: the supplement of paper PMC10567573
